Where these numbers come from: the RNAGym collection of RNA variant scans (doi:10.7554/elife.90254)

B1: LINE1-full (parent)
chain: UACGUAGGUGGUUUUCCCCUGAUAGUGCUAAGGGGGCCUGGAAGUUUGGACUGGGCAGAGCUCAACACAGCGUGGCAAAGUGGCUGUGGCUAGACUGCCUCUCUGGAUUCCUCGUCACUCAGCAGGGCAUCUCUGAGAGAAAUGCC

variants of: B1; assay: self-cleavage, relative activity (ratio to wild type); higher = more cleavage; in vitro, sequencing; the parent is a self-cleaving ribozyme
The label depends only on self-cleavage: y if it is at least 1, n if it is smaller.

Take a look at these entries with their results.
# sequence.content, category.label
measured = [
    ("UACGUAGGGGGUUUUCCCCUGAUAGUGCUAAGGGGGCCUGGAAGUUUGGACUGGGCAGAGCUCUACACAGCGUGGCAAAGUGGCUGUGGCUAGACUGCCUCUCUGGAUUCCUCGUCACUCAGCAGGGCAUCUCUGAGAGAAAUGCC [U9G A64U]", "n"),
    ("UACGUAGGUGGAUUUCCCCUGAUAGUGCUAAGGGGGCCUGGAAGUUUGGACUGGGCAGAGCUCAACACAGCGUGGCAAAGUGGCUGUGGCUAGACUGCCUCUCUGGAUUCCUCGUCACUCAGCAGGGCAUCUCUGAUAGAAAUGCC [U12A G137U]", "y"),
    ("UACGUAGGUGGUUUUCCCCUGAUAGUGCAAAGGGGGCCUGGAAGUUUGGAAUGGGCAGAGCUCAACACAGCGUGGCAAAGUGGCUGUGGCUAGACUGCCUCUCUGGAUUCCUCGUCACUCAGCAGGGCAUCUCUGAGAGAAAUGCC [U29A C51A]", "y"),
    ("UACGUAGGUGGUUUUCCCCUGAUGGUGCUAAGGGGGCCUGGAAGUUUGGACUGGGCAGAGCUCAACACAGCGUGGCAAAGUGGCUGUGGCUAGACUGCCUCUCUGGAUUCCUCGUCACUCAGCAGGGCAUCUCUGAGAGAUAUGCC [A24G A141U]", "y"),
    ("UACGUAGGUGGUUUUCCCCUGAUAGUGCUAUGGGGGCCUGGAAGUUUGGACUGGGCAGAGCUCAACACAGCGUGGCAAAGUGGCUGUGGCUAGGCUGCCUCUCUGGAUUCCUCGUCACUCAGCAGGGCAUCUCUGAGAGAAAUGCC [A31U A94G]", "n"),
    ("UACGUUGGUGGUUUUCCCCUGAUAGUGCUAAGGGGGCCUGGAAGUUCGGACUGGGCAGAGCUCAACACAGCGUGGCAAAGUGGCUGUGGCUAGACUGCCUCUCUGGAUUCCUCGUCACUCAGCAGGGCAUCUCUGAGAGAAAUGCC [A6U U47C]", "n"),
]

q: Please check the record UACGAAGGUGGUUUUCCCCUGAUAGUGCUAAGGGGGCCUGGAAGUUUGGACUGGGCAGAGCUCAACACAGCGUGGCAAAGUGGCUGUGGCUAGACUGCCUCUCUGGAUUCCUCGUCACUCAGCAUGGCAUCUCUGAGAGAAAUGCC [U5A G125U] and state if its self-cleavage is at or above 1.
a: n

q: Please check the record UACGUAGGUGGUUUUCCCCUGAUAGUGCUAAGGGUGCCUGGAAGUUUGGACUGGGCAGAGCUCAACACAGCGUGGCAAAGUGGCUGUGGCUAGACUGCCUCUCUGGAUUCCUCGUCACUCAGCAGGGCGUCUCUGAGAGAAAUGCC [G35U A129G] and state if its self-cleavage is at or above 1.
a: y

q: Please check the record UACGUAGGUGGUUUUCCCCUGAUAGUGCUAAGGGGGCCUGGAAGUUCGGACUGGGCAGAGCUCAACACAGCGUGGCAAAGUGGCUGUGGCUAGACUGUCUCUCUGGAUUCCUCGUCACUCAGCAGGGCAUCUCUGAGAGAAAUGCC [U47C C98U] and state if its self-cleavage is at or above 1.
a: n

q: Please check the record UACGUAGGUGGUUUUCCCCUGAUAGUGCUAAGGGGGCCUGGAAGUUUGGACUGGGCAGAGCUCAACACAGCGUGGCAAAGUGGCUGUGGCUAGGCUGCCUCUCAGGAUUCCUCGUCACUCAGCAGGGCAUCUCUGAGAGAAAUGCC [A94G U104A] and state if its self-cleavage is at or above 1.
a: n

q: Please check the record CACGUAGGUGGUUUUCCCCUGAUAGUGCUAAGGGGGCCUGGAAGUUUGGACUGGGCAGAGCUCAACACAGCGUGGUAAAGUGGCUGUGGCUAGACUGCCUCUCUGGAUUCCUCGUCACUCAGCAGGGCAUCUCUGAGAGAAAUGCC [U1C C76U] and state if its self-cleavage is at or above 1.
a: y
